- system: Concanavalin-A (Canavalia ensiformis) (UniProt P02866)
- Sequence (P02866 whole entry, looked up): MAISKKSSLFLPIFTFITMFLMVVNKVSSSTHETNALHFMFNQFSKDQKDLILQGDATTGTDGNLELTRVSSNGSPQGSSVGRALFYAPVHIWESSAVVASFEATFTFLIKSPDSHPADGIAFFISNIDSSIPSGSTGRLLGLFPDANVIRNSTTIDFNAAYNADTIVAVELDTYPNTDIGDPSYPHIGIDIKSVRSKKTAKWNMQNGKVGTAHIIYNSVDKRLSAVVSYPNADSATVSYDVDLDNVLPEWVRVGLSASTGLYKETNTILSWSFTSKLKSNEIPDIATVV
- protocol details: ConA small-molecule binders, primary screen, artefact control for SMM control protein annotation, biochemical, small-molecule microarray, Alexa647 label, 635 nm (AID 1127);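 further: z combines 667 nm emission intensity with signal-to-noise across three replicate slides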
- study conditions: ConA-A647 binding fluorescence, higher = more signal
Listed below: composite z-score values for each entry.
Form rule: numeric answer, no unit written next to it.

# example entries with known answers
The reported value for `C=CCNC(=O)[C@H]1[C@@H]2C(=O)O[C@@H](c3ccccc3)[C@@H](c3ccccc3)N2[C@@H](c2ccc(OCCO)cc2)[C@]12C(=O)Nc1ccc(C#Cc3ccc(OC)cc3)cc12` in terms of composite z-score is 1.18

The reported value for `CC(C)C[C@@H]1NC(=O)[C@H]2C[C@@H](C(=O)O)[C@@H](c3cccc(OCCO)c3)N2C1=O` in terms of composite z-score is 0.587

The reported value for `COCCCNC(=O)[C@@]1(Cc2ccccc2I)c2ccccc2C(=O)N(Cc2ccccc2C(F)(F)F)[C@H]1c1ccc(CO)cc1` in terms of composite z-score is -0.375

The reported value for `C=C[C@@H](CO)NS(=O)(=O)c1ccc(Br)cc1` in terms of composite z-score is -1.76

The reported value for `COC(=O)Cn1c(C(=O)N(C)C)cc2c1C[C@H]1CN(C(=O)c3ccccc3)[C@@](Cc3ccccc3)(C(=O)OC)[C@@H]21` in terms of composite z-score is 0.169

The reported value for CC1C2C(CCCO)=CC(C3C(=O)N(C)C(=O)C23)N1Cc1cccc(OC(F)(F)F)c1 (configuration not stated) in terms of composite z-score is 0.96

The reported value for `COC(=O)[C@@]1(Cc2ccccc2)[C@H]2c3cc(C(=O)N(C)C)n(Cc4ccc(Cl)c(C(F)(F)F)c4)c3C[C@H]2CN1C(=O)c1ccccc1` in terms of composite z-score is 0.95

The reported value for CN1C(=O)C2CC=C(C3=CCO[C@@H]3[C@H]3CCCN3S(=O)(=O)c3ccccc3[N+](=O)[O-])CC2C1=O (some centres not stated) in terms of composite z-score is -0.65

The reported value for `COC(=O)[C@@]1(Cc2ccc(F)cc2)[C@H]2c3cc(C(=O)N(C)C)n(Cc4cccc5ccccc45)c3C[C@H]2CN1C(=O)c1ccccc1` in terms of composite z-score is 0.162

The reported value for `C[C@]1(C(=O)NC2CC2)c2ccccc2C(=O)N(Cc2cc(F)cc(C(F)(F)F)c2)[C@H]1c1ccc(CO)cc1` in terms of composite z-score is -0.0372

More entries:
The reported value for `COc1ccc(C(=O)Nc2ccc(CN3C(=O)[C@]4(O[C@H](CC(=O)N(CCO)Cc5ccccc5)[C@@H]([Si](C)(C)c5ccc(OC)cc5)[C@@H]4C)c4ccccc43)cc2)cc1` in terms of composite z-score is 0.905

The reported value for `O=C1N(Cc2ccccc2)c2ccccc2C[C@@]12N=C(c1ccc(OCCCO)cc1)O[C@H]2c1ccccc1` in terms of composite z-score is 1.06
